The origin of these recorded values is patent US10793563B2.

Here the recorded IC50 is given for each entry.
Target: intracellular GCN2 (phosphorylation of the GCN2 substrate eIF2α) (Homo sapiens (Human), UniProt Q9P2K8)
Sequence (Q9P2K8 whole entry): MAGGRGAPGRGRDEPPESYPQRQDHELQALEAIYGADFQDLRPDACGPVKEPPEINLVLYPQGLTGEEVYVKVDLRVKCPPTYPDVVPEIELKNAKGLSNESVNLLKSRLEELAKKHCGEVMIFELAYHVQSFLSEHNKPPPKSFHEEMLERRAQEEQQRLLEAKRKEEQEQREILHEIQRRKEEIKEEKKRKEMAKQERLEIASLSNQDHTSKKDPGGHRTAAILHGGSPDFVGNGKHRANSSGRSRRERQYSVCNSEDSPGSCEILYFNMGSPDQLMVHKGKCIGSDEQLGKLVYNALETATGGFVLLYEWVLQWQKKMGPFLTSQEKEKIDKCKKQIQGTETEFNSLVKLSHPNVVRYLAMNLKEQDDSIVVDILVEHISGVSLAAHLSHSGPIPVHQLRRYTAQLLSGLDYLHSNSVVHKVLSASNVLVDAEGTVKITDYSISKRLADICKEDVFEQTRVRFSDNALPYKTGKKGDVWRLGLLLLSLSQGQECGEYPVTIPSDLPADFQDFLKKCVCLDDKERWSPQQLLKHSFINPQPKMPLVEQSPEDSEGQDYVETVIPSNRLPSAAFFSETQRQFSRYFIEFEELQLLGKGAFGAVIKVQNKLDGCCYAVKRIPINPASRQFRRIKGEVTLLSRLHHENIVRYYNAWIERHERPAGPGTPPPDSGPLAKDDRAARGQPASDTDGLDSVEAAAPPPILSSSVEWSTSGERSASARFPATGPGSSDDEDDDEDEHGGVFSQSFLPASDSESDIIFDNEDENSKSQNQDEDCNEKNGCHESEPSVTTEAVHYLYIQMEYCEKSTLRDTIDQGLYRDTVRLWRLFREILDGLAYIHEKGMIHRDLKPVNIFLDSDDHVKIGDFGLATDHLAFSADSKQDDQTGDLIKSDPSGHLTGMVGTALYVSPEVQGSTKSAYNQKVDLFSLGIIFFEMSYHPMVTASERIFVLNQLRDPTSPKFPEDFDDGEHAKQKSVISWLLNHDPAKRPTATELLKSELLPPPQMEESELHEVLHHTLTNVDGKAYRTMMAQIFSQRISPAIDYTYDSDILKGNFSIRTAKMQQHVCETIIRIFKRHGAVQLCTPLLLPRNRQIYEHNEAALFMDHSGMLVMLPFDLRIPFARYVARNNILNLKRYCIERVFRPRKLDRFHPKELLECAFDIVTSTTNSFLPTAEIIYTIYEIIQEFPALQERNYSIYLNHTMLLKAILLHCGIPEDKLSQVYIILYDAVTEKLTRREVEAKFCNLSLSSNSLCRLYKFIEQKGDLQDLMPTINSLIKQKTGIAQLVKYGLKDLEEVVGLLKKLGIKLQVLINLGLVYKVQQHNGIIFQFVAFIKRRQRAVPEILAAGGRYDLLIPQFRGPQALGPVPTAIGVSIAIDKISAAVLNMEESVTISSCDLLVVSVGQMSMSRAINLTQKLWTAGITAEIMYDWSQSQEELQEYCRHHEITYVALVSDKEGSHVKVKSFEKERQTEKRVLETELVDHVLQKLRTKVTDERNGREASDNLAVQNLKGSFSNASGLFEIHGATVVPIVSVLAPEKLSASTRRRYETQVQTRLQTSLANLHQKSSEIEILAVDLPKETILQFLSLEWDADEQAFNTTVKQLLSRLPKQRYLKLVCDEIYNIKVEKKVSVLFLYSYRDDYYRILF
Test: GCN2 Cellular Inhibition Assay (AlphaScreen SureFire P-eIF2α Ser51, borrelidin-treated U2OS cells)
Assay type: cell-based
Conditions: 10 μM borrelidin, 1 h, phosphorylated eIF2α Ser51, read-out: GCN2 Biomarker (IC50)
Method: Compounds can be screened for their ability to inhibit intracellular GCN2 using an AlphaScreen assay (Perkin Elmer) to detect phosphorylation of the GCN2 substrate eIF2α in borrelidin-treated cells. […] Plates are analyzed on an Alpha Technology-compatible PHERAstar FS plate reader (BMG Labtech Version 1.14) to quantify phosphorylated eIF2α Ser51 levels. The percentage inhibition of phosphorylated eIF2α is calculated by comparison to control wells stimulated with borrelidin alone.

Observe how each entry below is paired with its result.
Task item: Would you kindly share the measured IC50 for Cc1cc(-c2cnc3ccc(N4CC(F)(F)C4)cn23)nc(N2C[C@H](C)C[C@H](c3cn[nH]c3)C2)n1 ?
Reply: < 500 nM

Task item: Same thing, different molecule: CC(C)n1cc(C(=O)N2CCN(c3ccnc(-c4cnc5ccc(C(F)(F)F)cn45)n3)CC2c2cn[nH]c2)cn1 (centres unmarked)
Reply: 500 to 5000 nM

Task item: Same thing, different molecule: NC(=O)C1CN(c2ccnc(-c3cnc4ccc(C(F)(F)F)cn34)n2)CCN1C1CC1 (centres unmarked)
Reply: 500 to 5000 nM

Task item: Same thing, different molecule: C[C@H]1CN(c2nccc(-c3cnc4ccc(Cl)cn34)n2)C[C@H](c2cn[nH]c2)O1
Reply: 500 to 5000 nM

Task item: Same thing, different molecule: Fc1cc2ncc(-c3nccc(N4CCOC(c5ccccn5)C4)n3)n2cc1Cl (centres unmarked)
Reply: < 500 nM

Next:
Task item: Would you kindly share the measured IC50 for O=C(CO)N1CCN(c2ccnc(-c3cnc4ccc(C(F)(F)F)cn34)n2)CC1c1cn[nH]c1 (centres unmarked) ?
Reply: > 5000 nM

Task item: Same thing, different molecule: CC1CN(c2ccnc(-c3cnc4ccc(C(F)(F)F)cn34)n2)CC(C)N1CC#N (centres unmarked)
Reply: 500 to 5000 nM

Task item: Same thing, different molecule: CC1(C)C[C@@H]1CN1CCN(c2ccnc(-c3cnc4ccc(C(F)(F)F)cn34)n2)C[C@H]1c1cn[nH]c1
Reply: < 500 nM
